- method.summary: NCI Yeast Anticancer Drug Screen. Data for the bub3 strain (AID 167)
- condition.set: S. cerevisiae bub3 mutant strain, at 50.0 µM, active compounds read high
The panel holds about 79,000 compounds, 15% with a hit somewhere; the sample as a whole holds those more often.
attribute.measured: growth inhibition (%)
Give the quantity in %, number only.

- compound: "N/C=N/OC(=O)c1ccccc1"
  growth inhibition / %: 0.5

query: Name the recorded growth inhibition of the item COC(=O)C(=O)C1(C)CCc2c(ccc3ccc(OC)cc23)C1=O (configuration not stated) in your answer.
result: 19.9

query: State, in one line, measured growth inhibition of `CC1=NN(c2nc(N)nc(CCl)n2)CC1`
result: 11.5
